Molecular target: human recombinant adrenergic α2A receptor (Homo sapiens)
Construct: expressed in transfected cells; host or cells: insect Sf9 cells
Sequence (P08913 whole entry): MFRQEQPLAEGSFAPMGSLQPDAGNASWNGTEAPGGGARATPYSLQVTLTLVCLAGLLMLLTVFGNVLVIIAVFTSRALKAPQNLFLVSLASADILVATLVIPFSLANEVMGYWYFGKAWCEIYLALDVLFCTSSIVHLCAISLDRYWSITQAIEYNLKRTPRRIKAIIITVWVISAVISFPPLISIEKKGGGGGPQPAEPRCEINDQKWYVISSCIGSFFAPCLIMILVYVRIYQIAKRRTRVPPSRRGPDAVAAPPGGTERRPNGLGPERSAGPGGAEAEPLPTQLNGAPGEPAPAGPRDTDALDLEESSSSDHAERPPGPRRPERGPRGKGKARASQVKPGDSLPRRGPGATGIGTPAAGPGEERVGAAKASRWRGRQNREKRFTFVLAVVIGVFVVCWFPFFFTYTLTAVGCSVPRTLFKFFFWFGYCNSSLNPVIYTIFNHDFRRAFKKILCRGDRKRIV
Test: Radioligand binding, adrenergic α2A ([3H]MK-912)
Conditions: 0.1 μM compound; read-out: Percentage inhibition of ligand binding, Adrenergic α2A
A collection of compounds and their measured inhibition at 0.1 µM
measured-metric: inhibition at 0.1 µM

[[record]]
compound = "Cc1ccc2c(c1)c1c(n2CC(O)c2ccncc2)CN2CCC1C2 (stereo not drawn) [II-69]"
assay_target = "human recombinant adrenergic α2A receptor (Homo sapiens)"
measured_metric = "inhibition at 0.1 µM"
test_value = "11%"

[[record]]
compound = "Cc1ccc2c(c1)c1c(n2CCc2cscc2C)CCN(C)C1 [compound 318]"
assay_target = "human recombinant adrenergic α2A receptor (Homo sapiens)"
measured_metric = "inhibition at 0.1 µM"
test_value = "95%"

[[record]]
compound = "Cc1ccc2c(n1)c1c(n2CC(C)(O)c2cccnc2)CCN2CCCC12 (stereo not drawn) [II-17]"
assay_target = "human recombinant adrenergic α2A receptor (Homo sapiens)"
measured_metric = "inhibition at 0.1 µM"
test_value = "4%"

[[record]]
compound = "C/C(=C\\n1c2c(c3cc(C)ccc31)CN(C)CC2)c1ccc(C(F)(F)F)nc1 [compound 331]"
assay_target = "human recombinant adrenergic α2A receptor (Homo sapiens)"
measured_metric = "inhibition at 0.1 µM"
test_value = "53%"

[[record]]
compound = "CCNC(Cn1c2c(c3cc(C)ccc31)CN(C)CC2)c1ccncc1 (stereo not drawn) [II-8]"
assay_target = "human recombinant adrenergic α2A receptor (Homo sapiens)"
measured_metric = "inhibition at 0.1 µM"
test_value = "9%"

[[record]]
compound = "C/C(=C\\n1c2c(c3cc(C)ccc31)CCN(C)CC2)c1cccnc1 [compound 245]"
assay_target = "human recombinant adrenergic α2A receptor (Homo sapiens)"
measured_metric = "inhibition at 0.1 µM"
test_value = "65%"

[[record]]
compound = "Cc1cc(Br)c2c(c1)c1c(n2CCc2ccc(C)nc2)CCN(C)C1 [II-39]"
assay_target = "human recombinant adrenergic α2A receptor (Homo sapiens)"
measured_metric = "inhibition at 0.1 µM"
test_value = "27%"

[[record]]
compound = "Cc1ccc2c(c1)c1c(n2CC(O)(c2ccccc2)c2ccccc2)CCN(C)C1 [compound 263]"
assay_target = "human recombinant adrenergic α2A receptor (Homo sapiens)"
measured_metric = "inhibition at 0.1 µM"
test_value = "61%"

[[record]]
compound = "CN1CCc2c(c3cc(CO)ccc3n2CC(C)(O)c2cccnc2)C1 (stereo not drawn) [II-102]"
assay_target = "human recombinant adrenergic α2A receptor (Homo sapiens)"
measured_metric = "inhibition at 0.1 µM"
test_value = "10%"


* * *

Overview of reported pKi across a group of compounds:
Target: human recombinant adrenergic α2B receptor (Homo sapiens)
Construct: expressed in transfected cells; host or cells: CHO-K1
Sequence (P18089 whole entry): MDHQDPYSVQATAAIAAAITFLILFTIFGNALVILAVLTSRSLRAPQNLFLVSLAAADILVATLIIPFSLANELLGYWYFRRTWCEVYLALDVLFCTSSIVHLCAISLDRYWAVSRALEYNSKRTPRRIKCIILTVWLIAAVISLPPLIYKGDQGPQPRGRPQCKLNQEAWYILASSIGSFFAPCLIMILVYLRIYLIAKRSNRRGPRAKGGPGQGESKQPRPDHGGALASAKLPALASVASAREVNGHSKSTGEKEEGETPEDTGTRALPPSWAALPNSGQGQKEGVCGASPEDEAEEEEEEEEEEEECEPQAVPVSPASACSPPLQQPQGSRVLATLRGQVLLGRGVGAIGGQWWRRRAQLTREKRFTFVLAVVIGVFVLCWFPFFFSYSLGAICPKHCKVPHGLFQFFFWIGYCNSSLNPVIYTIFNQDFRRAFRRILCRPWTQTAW
Assay: Radioligand binding, adrenergic α2B ([3H]Rauwolscine)
Settings: read-out: Ki α2B
pKi: −log10 of the molar value.
measured-metric: pKi

[[record]]
compound = "Cc1ccc2c(c1)c1c(n2CC(C)(O)c2cccnc2)CCN(C)CC1 (single isomer, unassigned) [II-135b]"
test_value = 9.28

[[record]]
compound = "Cc1ccc2c(c1)c1c(n2CC(C)(O)c2ccc(C)nc2)CCN2CCCC12 (single isomer, unassigned) [II-128b]"
test_value = 9.31

[[record]]
compound = "CN1CCc2c(c3cc(Cl)ccc3n2CCc2cccnc2)C1"
test_value = 8.23

[[record]]
compound = "Cc1cnc2c(c1)c1c(n2CC(C)(O)c2cccnc2)CCN2CCCC12 (single isomer, unassigned) [26a]"
test_value = 9.25

